assay: Toxicity liver stage against HepG2, at 10uM; type: cell-based; parameters: test concentration 10 uM, cell line HepG2-A16-CD81EGFP; details: human, HepG2-A16-CD81EGFP cells; read-out: INHIBITION
Provide the reported cytotoxicity at 10 µM of each item.
Unit % implied. Number only.

Kindly note the recorded cytotoxicity at 10 µM for CCc1cnc(CNC(=O)NC2CCN(C3CCCC3)CC2)s1 , which is -1.06

Kindly note the recorded cytotoxicity at 10 µM for CC(C)(C)c1ncc(CNCC2CCCn3ccnc32)s1 (stereo not drawn) , which is -6.76

Kindly note the recorded cytotoxicity at 10 µM for CC(C)C(=O)N1CCC([C@@H]2C[C@H](C(F)F)n3ncnc3N2)CC1 , which is 6.21
